Here the recorded pIC50 is given for each entry.
tested on: 377384-186-R-J1-PDC complex spheroid viability; assay: Anticancer human tumor 377384-186-R-J1-PDC patient-derived pancreatic carcinoma cell line growth inhibition [RAS]; details: curve of first compound; second compound 0.316 µM;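 also: spheroids exposed to compounds for seven days before readout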
pIC50: −log10 of the molar value.

Before answering, review these 4 worked examples.
molecule	pIC50
CC(=O)OC12COC1CC(O)C1(C)C(=O)C(O)C3=C(C)C(OC(=O)C(O)C(NC(=O)OC(C)(C)C)c4ccccc4)CC(O)(C(OC(=O)c4ccccc4)C21)C3(C)C (stereo not given) + C#Cc1c(F)ccc2cc(O)cc(-c3ncc4c(N5CC6CCC(C5)N6)nc(OCC56CCCN5CC(F)C6)nc4c3F)c12	> 7.50
Cc1nc(N2CCC3(CC2)COC(C)C3N)c(CO)nc1Sc1ccnc(N)c1Cl (stereo not given) + C=CC(=O)N1CCN(c2nc(OCC3CCCN3C)nc3c(F)c(-c4nc(N)cc(C)c4C(F)(F)F)c(Cl)cc23)C(C)C1	< 5.00
CC1(C)CCC(Nc2ncc(C(F)(F)F)c(-c3c[nH]c4c(P(C)(C)=O)c(C#N)ccc34)n2)CN1 (stereo not given) + C#Cc1c(F)ccc2cc(O)cc(-c3ncc4c(N5CC6CCC(C5)N6)nc(OCC56CCCN5CC(F)C6)nc4c3F)c12	> 9.02
CC(C)n1nc(-c2ccc3oc(N)nc3c2)c2c(N)ncnc21 + C#Cc1c(F)ccc2cc(O)cc(-c3ncc4c(N5CC6CCC(C5)N6)nc(OCC56CCCN5CC(F)C6)nc4c3F)c12	> 9.50

Please turn your attention to the following entry.
# pIC50 lookup, item NC1c2ccccc2OC12CCN(c1cnc3c(N4CCCc5ncccc54)n[nH]c3n1)CC2 (stereo not given) + C#Cc1c(F)ccc2cc(O)cc(-c3ncc4c(N5CC6CCC(C5)N6)nc(OCC56CCCN5CC(F)C6)nc4c3F)c12 > 7.50

Where do these numbers come from? They come from PubChem BioAssay AID2060903.
